Below is a list of entries, each paired with its recorded Radioactivity distribution Heart value.
# ASSAY_TEXT: In vivo kinetics experiment (radioactivity distribution)
# Set-up: species or system Wistar male rat
# TEST_CONTEXT: 30 min after administration; rat i.v.; mean ± SD
Output should be the measured figure followed by the unit it is expressed in.

Examples with answers:
CC(C)n1c(-c2cncc(Cn3ccnc3)c2)nc2ccc([123I])cc21 [[^123I] 606] :: 0.44 ± 0.01 % ID/g
FCCn1c(-c2cncc(Cn3ccnc3)c2)nc2ccc([123I])cc21 [[^123I] 604] :: 0.64 ± 0.04 % ID/g
COc1cc([123I])cc2c1nc(-c1cncc(Cn3ccnc3)c1)n2C1CC1 [[^123I] 609] :: 0.36 ± 0.02 % ID/g

query: GET /values?readout=Radioactivity distribution Heart&item= CCn1c(-c2cncc(Cn3ccnc3)c2)nc2ccc([123I])cc21 [[^123I] 608]
result: 0.76 ± 0.16 % ID/g

* * *

Listed here are compounds together with their documented Adrenal gland/liver ratio of radioactivity accumulation.
# ASSAY_TEXT: In vivo kinetics experiment (radioactivity distribution)
# Set-up: species or system Wistar male rat
# TEST_CONTEXT: rat, caudal vein, 10 min after administration
In your answer, state the number alone without any accompanying words.

Solved entries:
[123I]c1ccc2nc(-c3cncc(Cn4ccnc4)c3)n(C3CC3)c2c1 [[^123I] 602] :: 3.02
Fc1cc2nc(-c3cncc(Cn4ccnc4)c3)n(CC[18F])c2cc1Br [[^18F] 200] :: 2.68

query: What value of Adrenal gland/liver ratio of radioactivity accumulation has been recorded for this entry: [123I]c1ccc2nc(-c3cncc(Cn4ccnn4)c3)n(C3CC3)c2c1 [[^123I] 603]
result: 4.37

query: What value of Adrenal gland/liver ratio of radioactivity accumulation has been reported for the following compound? FCCn1c(-c2cncc(Cn3ccnc3)c2)nc2cc(F)c([123I])cc21 [[^123I] 400]
result: 3.02

query: Tell me the measured Adrenal gland/liver ratio of radioactivity accumulation of Fc1cc2nc(-c3cncc(Cn4ccnc4)c3)n(CC[18F])c2cc1Cl [[^18F] 100] , please.
result: 1.93

query: I'd like to know its Adrenal gland/liver ratio of radioactivity accumulation. The compound in question is Fc1cc2nc(-c3cncc(Cn4ccnc4)c3)n(CCC[18F])c2cc1Cl [[^18F] 500]
result: 3.45

* * *

# ASSAY_TEXT: In vivo kinetics experiment (radioactivity distribution)
# Design: species or system Wistar male rat
# TEST_CONTEXT: 60 min after administration; rat i.v.; mean ± SD
Attribute: Radioactivity distribution Spleen
Provide the reading as a plain figure in % ID/g.

Before answering, review these 6 worked examples.
COC(=O)c1cncn1[C@H](C)c1ccc(I)cc1 [[^123I] IMTO, (R)-[^123I]iodometomidate, reference compound] :: 0.39
Fc1cc2nc(-c3cncc(Cn4ccnc4)c3)n(Cc3ccc([123I])cc3)c2cc1Cl [[^123I] 605] :: 0.34
CCn1c(-c2cncc(Cn3ccnc3)c2)nc2ccc([123I])cc21 [[^123I] 608] :: 4.13
FCCn1c(-c2cncc(Cn3ccnc3)c2)nc2ccc([123I])cc21 [[^123I] 604] :: 5.62
CC(C)n1c(-c2cncc(Cn3ccnc3)c2)nc2ccc([123I])cc21 [[^123I] 606] :: 3.05
FCCn1c(-c2cncc(Cn3cncc3[123I])c2)nc2cc(F)c(Cl)cc21 [[^123I] 610] :: 0.78

query: Suppose we examine the compound COc1cc([123I])cc2c1nc(-c1cncc(Cn3ccnc3)c1)n2C1CC1 [[^123I] 609] ; what Radioactivity distribution Spleen value has been reported?
result: 0.30

query: Bench note: what Radioactivity distribution Spleen did Cn1c(-c2cncc(Cn3ccnc3)c2)nc2ccc([123I])cc21 [[^123I] 607] show?
result: 6.95
